System: wheat (Triticum aestivum var. Lew)
Assay: post-emergence herbicidal activity, wheat
Assay type: in vivo
Conditions: 1 Kg/Ha, about fourteen days, read-out: post-emergence herbicidal activity (% control) WHT
Measured endpoint: activity at 1000 g/ha (%)
Your answer should be a plain number; it is taken to be in %.

A selection of reference data follows.
1) Cn1c(C(F)(F)F)cc(=O)n(-c2ccc(Cl)c3c2CN(O)C3=O)c1=O :: 50
2) CON1Cc2c(-n3c(=O)cc(C(F)(F)F)n(C)c3=O)ccc(Cl)c2C1=O :: 80
3) COCCN1Cc2c(-n3c(=O)cc(C(F)(F)F)n(C)c3=O)ccc(Cl)c2C1=O :: 100
4) C=CCN1Cc2c(-n3c(=O)cc(C(F)(F)F)n(C)c3=O)ccc(Cl)c2C1=O :: 100
5) CCn1c(C(F)(F)F)cc(=O)n(-c2ccc(Cl)c3c2CN(C(C)C)C3=O)c1=O :: 80

Entry Cn1c(C(F)(F)F)cc(=O)n(-c2ccc(Cl)c3c2CN(Cc2ccc(Cl)cc2)C3=O)c1=O , system wheat (Triticum aestivum var. Lew): what activity at 1000 g/ha was measured? 30

Entry CC(C)N1Cc2c(-n3c(=O)cc(C(F)(F)F)n(N)c3=O)ccc(Cl)c2C1=O , system wheat (Triticum aestivum var. Lew): what activity at 1000 g/ha was measured? 100

Entry Cn1c(C(F)(F)F)cc(=O)n(-c2c(Cl)cc(Cl)c3c2CN(O)C3=O)c1=O , system wheat (Triticum aestivum var. Lew): what activity at 1000 g/ha was measured? 20

----------
Parameter: activity at 1000 g/ha. Scope: all listed entries.
System: soybean (Glycine max -- var. Winchester)
Test: pre-emergence herbicidal activity, soybean
Format: in vivo
Conditions: 1 kg/Ha, about fourteen days, read-out: pre-emergence herbicidal activity (% control) SOY
Your answer should be a plain number; it is taken to be in %.

1) CC(C)N1Cc2c(-n3nc4n(c3=O)CCCC4)ccc(Cl)c2C1=O :: 5
2) CCN1Cc2c(-n3c(=O)cc(C(F)(F)F)n(C)c3=O)ccc(Cl)c2C1=O :: 100
3) CC(C)N1Cc2c(-n3c(=O)cc(C(F)(F)F)n(C)c3=O)ccc(Cl)c2C1=O :: 100

Continue with the next compound.
Give the measured activity at 1000 g/ha of CC(C)N1Cc2c(c(Cl)cc(Cl)c2-n2c(=O)cc(C(F)(F)F)n(C)c2=O)C1=O . 100

----------
Tested on: velvetleaf (Abutilon theophrasti)
Test: post-emergence herbicidal activity, velvetleaf
Format: in vivo
Conditions: 1 Kg/Ha, about fourteen days, read-out: post-emergence herbicidal activity (% control) ABUTH
Parameter: activity at 1000 g/ha. Scope: all listed entries.
Your answer should be a plain number; it is taken to be in %.

A selection of reference data follows.
1) Cn1c(C(F)(F)F)cc(=O)n(-c2c(Cl)cc(Cl)c3c2CN(C(C)(C)C)C3=O)c1=O [Compound 6] :: 100
2) CCOC(=O)CN1Cc2c(-n3c(=O)cc(C(F)(F)F)n(C)c3=O)ccc(Cl)c2C1=O [Compound 7] :: 80
3) C=CCON1Cc2c(-n3c(=O)cc(C(F)(F)F)n(C)c3=O)ccc(Cl)c2C1=O [Compound 17] :: 100
4) C=CCN1Cc2c(-n3c(=O)cc(C(F)(F)F)n(C)c3=O)ccc(Cl)c2C1=O [Compound 20] :: 100
5) Cn1c(C(F)(F)F)cc(=O)n(-c2ccc(Cl)c3c2CN(CC(F)(F)F)C3=O)c1=O [Compound 28] :: 100
6) C#CCN1Cc2c(-n3c(=O)cc(C(F)(F)F)n(C)c3=O)ccc(Cl)c2C1=O [Compound 8] :: 100
7) COC(=O)CCN1Cc2c(-n3c(=O)cc(C(F)(F)F)n(C)c3=O)ccc(Cl)c2C1=O [Compound 26] :: 100

Continue with the next compound.
Give the measured activity at 1000 g/ha of Cn1c(C(F)(F)F)cc(=O)n(-c2ccc(Cl)c3c2CNC3=O)c1=O [Compound 12] . 100

----------
Tested on: blackgrass (Aloepecurus myosuroides)
Experiment: post-emergence herbicidal activity, blackgrass
Assay type: in vivo
Details: Alopecurus myosuroides, 1 Kg/Ha, about fourteen days, read-out: post-emergence herbicidal activity (% control) ALOMY
Measured endpoint: activity at 1000 g/ha (%)
Your answer should be a plain number; it is taken to be in %.

A selection of reference data follows.
1) C=CCn1c(C(F)(F)F)cc(=O)n(-c2ccc(Cl)c3c2CN(C(C)C)C3=O)c1=O [Compound 80] :: 65
2) Cn1c(C(F)(F)F)cc(=O)n(-c2c(Cl)cc(Cl)c3c2CN(C(C)(C)C)C3=O)c1=O [Compound 6] :: 100
3) Cn1c(C(F)(F)F)cc(=O)n(-c2ccc(Cl)c3c2CN(CCF)C3=O)c1=O [Compound 78] :: 100
4) CCCn1c(C(F)(F)F)cc(=O)n(-c2ccc(Cl)c3c2CN(C(C)C)C3=O)c1=O [Compound 72] :: 10
5) Cn1c(C(F)(F)F)cc(=O)n(-c2ccc(Cl)c3c2CN(C2CCCC2)C3=O)c1=O [Compound 76] :: 100

Entry CC(C)N1Cc2c(-n3nc4n(c3=O)CCCC4)ccc(Cl)c2C1=O [Compound 83] , system blackgrass (Aloepecurus myosuroides): what activity at 1000 g/ha was measured? 50

Entry C#CCn1c(C(F)(F)F)cc(=O)n(-c2ccc(Cl)c3c2CN(C(C)C)C3=O)c1=O [Compound 75] , system blackgrass (Aloepecurus myosuroides): what activity at 1000 g/ha was measured? 100

Entry CCN1Cc2c(c(Cl)cc(Cl)c2-n2c(=O)cc(C(F)(F)F)n(C)c2=O)C1=O [Compound 5] , system blackgrass (Aloepecurus myosuroides): what activity at 1000 g/ha was measured? 100

Entry CC(C)N1Cc2c(-n3c(=O)cc(C(F)(F)F)n(C)c3=O)ccc(Br)c2C1=O [Compound 81] , system blackgrass (Aloepecurus myosuroides): what activity at 1000 g/ha was measured? 100

Entry Cn1c(C(F)(F)F)cc(=O)n(-c2ccc(Cl)c3c2CN(C2CCCCC2)C3=O)c1=O [Compound 77] , system blackgrass (Aloepecurus myosuroides): what activity at 1000 g/ha was measured? 100

Entry CC(C)N1Cc2c(-n3c(=O)cc(C(F)(F)F)n(C)c3=O)ccc(Cl)c2C1=O [Compound 3] , system blackgrass (Aloepecurus myosuroides): what activity at 1000 g/ha was measured? 100

----------
System: soybean (Glycine max -- var. Winchester)
Assay: pre-emergence herbicidal activity, soybean
Assay type: in vivo
Conditions: 1 kg/Ha, about fourteen days, read-out: pre-emergence herbicidal activity (% control) SOY
Measured endpoint: activity at 1000 g/ha (%)
Your answer should be a plain number; it is taken to be in %.

1) C=CCN1Cc2c(-n3c(=O)cc(C(F)(F)F)n(C)c3=O)ccc(Cl)c2C1=O [Compound 20] :: 100
2) CCOC(=O)CN1Cc2c(-n3c(=O)cc(C(F)(F)F)n(C)c3=O)ccc(Cl)c2C1=O [Compound 7] :: 70
3) CC(C)N1Cc2c(-n3c(=O)cc(C(F)(F)F)n(Cc4ccccc4)c3=O)ccc(Cl)c2C1=O [Compound 73] :: 95

Give the measured activity at 1000 g/ha of Cn1c(C(F)(F)F)cc(=O)n(-c2c(Cl)cc(Cl)c3c2CNC3=O)c1=O [Compound 15] . 100

Give the measured activity at 1000 g/ha of COC(=O)CCN1Cc2c(-n3c(=O)cc(C(F)(F)F)n(C)c3=O)ccc(Cl)c2C1=O [Compound 26] . 100

Give the measured activity at 1000 g/ha of CON1Cc2c(-n3c(=O)cc(C(F)(F)F)n(C)c3=O)ccc(Cl)c2C1=O [Compound 21] . 100

Give the measured activity at 1000 g/ha of Cn1c(C(F)(F)F)cc(=O)n(-c2ccc(Cl)c3c2CN(C2CCCC2)C3=O)c1=O [Compound 76] . 100

Give the measured activity at 1000 g/ha of COc1ccc(CN2Cc3c(-n4c(=O)cc(C(F)(F)F)n(C)c4=O)ccc(Cl)c3C2=O)cc1 [Compound 25] . 50

----------
Parameter: activity at 1000 g/ha. Scope: all listed entries.
Test system: Johnsongrass (Sorghum halepense)
Test: post-emergence herbicidal activity, johnsongrass
Assay type: in vivo
Conditions: 1 Kg/Ha, about fourteen days, read-out: post-emergence herbicidal activity (% control) SORHA
Your answer should be a plain number; it is taken to be in %.

1) CCCCN1Cc2c(-n3c(=O)cc(C(F)(F)F)n(C)c3=O)ccc(Cl)c2C1=O :: 90
2) Cn1c(C(F)(F)F)cc(=O)n(-c2ccc(Cl)c3c2CN(Cc2ccc(Cl)cc2)C3=O)c1=O :: 40
3) Cn1c(C(F)(F)F)cc(=O)n(-c2ccc(Cl)c3c2CN(C(C)(C)C)C3=O)c1=O :: 100
4) Cn1c(C(F)(F)F)cc(=O)n(-c2ccc(Cl)c3c2CN(Cc2ccccc2)C3=O)c1=O :: 40
5) COCCN1Cc2c(-n3c(=O)cc(C(F)(F)F)n(C)c3=O)ccc(Cl)c2C1=O :: 100

Give the measured activity at 1000 g/ha of C#CCN1Cc2c(-n3c(=O)cc(C(F)(F)F)n(C)c3=O)ccc(Cl)c2C1=O . 100

Give the measured activity at 1000 g/ha of Cn1c(C(F)(F)F)cc(=O)n(-c2ccc(Cl)c3c2CNC3=O)c1=O . 60

Give the measured activity at 1000 g/ha of COC(=O)CCN1Cc2c(-n3c(=O)cc(C(F)(F)F)n(C)c3=O)ccc(Cl)c2C1=O . 80

Give the measured activity at 1000 g/ha of C=CCN1Cc2c(-n3c(=O)cc(C(F)(F)F)n(C)c3=O)ccc(Cl)c2C1=O . 100
